Test system: Malme-3M
Assay: NCI tumour cell line growth inhibition, 48 h
Calls of active or inactive are those of the source. No stated cut-off is given here; in the data, active = GI50 up to about 1.1 µM and inactive = higher.
Please reply with one of these outcomes: label 1 (active), label 0 (inactive)

Below, 3 compounds whose answers are already recorded.
[
  {
    "Compound": "CC(=O)N1C(c2[nH]c3ccccc3c2Cc2ccccc2)CCN1c1ccccc1 (centres undefined)",
    "Assigned Label": "label 0"
  },
  {
    "Compound": "CCN(CC)CCC1(C(=O)OC)SCCc2ccc(C)cc21 (centres undefined)",
    "Assigned Label": "label 0"
  },
  {
    "Compound": "C=CCCCn1ccc2ccccc21",
    "Assigned Label": "label 0"
  }
]

Look up the recorded call for C[C@]12CC[C@@H]3c4cc(Br)c(O)c(Br)c4CC[C@H]3[C@@H]1CCC2=O in this test. label 0

Look up the recorded call for COC(=O)C(Cc1ccccc1)/N=C/c1c(O)c(O)c(C(C)C)c2cc(C)c(-c3c(C)cc4c(C(C)C)c(O)c(O)c(/C=N/C(Cc5ccccc5)C(=O)OC)c4c3O)c(O)c12 (centres undefined) in this test. label 0

Look up the recorded call for O=C(/C=C(O)/C(=C/C(=O)c1ccccc1)NN=C(c1ccccc1)c1ccccc1)c1ccccc1 in this test. label 0

Look up the recorded call for COc1cc(C2c3cc4c(cc3OC(NNC(N)=S)C2C)OCO4)cc(OC)c1OC (centres undefined) in this test. label 1

Look up the recorded call for Cc1cc2c(c(C(N)=O)c1C)-c1ccccc1C2=O in this test. label 0

----------
Tested on: SF-539
Test: NCI tumour cell line growth inhibition, 48 h
Active and inactive are the calls of the source. Cut-off read from the data, not from the text of the source: active = GI50 up to about 1.1 µM and inactive = higher.
Known GI50 of a selection of compounds

# count of solved cases: 3
[
  {
    "Compound": "CC=C/C=C/[C@@H]1O[C@](O)([C@H](CC)C(=O)NC/C=C/C=C(\\C)[C@@H](OC)[C@@H](C)[C@@H]2O[C@H](/C=C/C=C/C=C(\\C)C(=O)c3c(O)cc[nH]c3=O)[C@H](O)[C@@H]2O)[C@H](O)[C@H](O)C1(C)C",
    "Experimental Target": "SF-539",
    "GI50": "> 100 µM (inactive)"
  },
  {
    "Compound": "COC(=O)n1c(CBr)c(Br)c2ccccc21",
    "Experimental Target": "SF-539",
    "GI50": "31.3 µM (inactive)"
  },
  {
    "Compound": "COC1OC(COCc2ccc(Cl)cc2)C(OCc2ccc(Cl)cc2)C1O (stereo not drawn)",
    "Experimental Target": "SF-539",
    "GI50": "16.3 µM (inactive)"
  }
]

// Input: CCOC(=O)C(C)(NC(=O)c1ccc(NCc2ccc3nc(NC(=O)c4ccccc4)nc(NC(=O)c4ccccc4)c3c2)cc1)C(=O)OCC . Output its GI50 only. 3.51 µM (inactive)

// Input: CC1CCN(c2nnc(Cl)cc2C(=O)c2ccccc2)CC1 . Output its GI50 only. 25.4 µM (inactive)

// Input: COc1ccc2nc3ccc(OC)cc3c(SCCO)c2c1 . Output its GI50 only. 20.7 µM (inactive)

// Input: CN(C)CCCNC(=O)CCNC(=O)c1cc(NC(=O)c2cc(NC(=O)c3cc(NC(=O)CCCNC(=O)c4cc(NC(=O)c5cc(NC(=O)c6nccn6C)cn5C)cn4C)cn3C)cn2C)cn1C . Output its GI50 only. > 100 µM (inactive)

// Input: CC1=C[C@@H](C)C[C@]2(C)CC[C@H](O2)[C@]23CC[C@](C(=O)O)(C[C@H](O2)[C@@H]2O[C@@](C)(CC2=O)[C@@H](O)[C@H]2CC[C@@]4(CCC[C@@H](O4)[C@H](C)C(=O)O[C@H]4C[C@H]([C@]5(O)OCC[C@H](C)[C@@H]5O)O[C@H]4C=C1)O2)O3 . Output its GI50 only. > 5.82 µM (inactive)

----------
Test system: UO-31
Experiment: NCI tumour cell line growth inhibition, 48 h
The source made the active and inactive calls. Rule as the data show it: active = GI50 up to about 1.1 µM and inactive = higher.
Please reply with one of these outcomes: active, inactive

Look up the recorded call for Cn1c(N)nc(-c2ccc(Cl)cc2)c1SSc1c(-c2ccc(Cl)cc2)nc(N)n1C in this test. inactive

Look up the recorded call for CSc1ncc2c(n1)-c1ccccc1OC2NC(C)(C)C (centres undefined) in this test. inactive

Look up the recorded call for COc1cc(C2C(C(=O)O)=C(C)Oc3cc4c(cc32)OCO4)cc(OC)c1OC (centres undefined) in this test. inactive

Look up the recorded call for CC(C)C(C/C=C1\CC(CO)(COC(=O)CC(C(C)C)C(C)C)OC1=O)C(C)C (centres undefined) in this test. inactive

Look up the recorded call for Cc1ccc(C(=O)/C=C/c2ccccc2O)c(C)c1 in this test. inactive

Look up the recorded call for CCOc1c2ccsc2c(OCC)c2ccsc12 in this test. inactive

----------
Tested on: LOX IMVI
Assay: NCI tumour cell line growth inhibition, 48 h
The source made the active and inactive calls. Rule as the data show it: active = GI50 up to about 1.1 µM and inactive = higher.
Please reply with one of these outcomes: active, inactive

[
  {
    "Molecule": "C=CCCCn1ccc2ccccc21",
    "Experimental Target": "LOX IMVI",
    "Assigned Label": "inactive"
  }
]

Look up the recorded call for COc1cc(/C=N/NC(=O)c2c(Cl)c(Cl)c(Cl)c(Cl)c2-c2nc3ccccc3[nH]2)ccc1O in this test. inactive

Look up the recorded call for CN(C)CCNC(=O)c1cc(Cl)cc2cc3ccccc3nc12 in this test. active

Look up the recorded call for CCC(C)C(=O)OC1CC2(C)C(c3ccoc3)OC(=O)CC23OC2(C)OC34C(OC(=O)C(C)C)C3(O)C(OC(=O)C5(C)OC5C)C5(C)CC3(O)C(C)(C5CC(=O)OC)C14O2 (stereo unspecified) in this test. inactive

Look up the recorded call for COc1cccc(SSc2cccc(OC)c2C(=O)O)c1C(=O)O in this test. inactive

Look up the recorded call for CC(=O)N1NC(c2ccccc2)=NC(=O)C1c1cc(C)c(O)c(C)c1 (stereo unspecified) in this test. inactive

----------
Known GI50 of a selection of molecules
Test system: NCI/ADR-RES
Experiment: NCI tumour cell line growth inhibition, 48 h
Calls of active or inactive are those of the source. Rule as the data show it: active = GI50 up to about 1.1 µM and inactive = higher.

# count of solved cases: 3
[
  {
    "Molecule": "[N-]=[N+]=NC1=NNC2(C(=O)N1)c1ccccc1-c1ccccc12",
    "GI50": "> 100 µM (inactive)"
  },
  {
    "Molecule": "O=C1CC2(c3ccccc3)ON=C(c3ccccc3)N2c2ccccc2N1 (stereo unspecified)",
    "GI50": "35.1 µM (inactive)"
  },
  {
    "Molecule": "CN(CC(=O)O)c1ncc2c(n1)C=CCC2",
    "GI50": "> 100 µM (inactive)"
  }
]

// Input: CC(=O)N1C(c2[nH]c3ccccc3c2Cc2ccccc2)CCN1c1ccccc1 (stereo unspecified) . Output its GI50 only. 9.02 µM (inactive)

----------
System: UACC-62
Experiment: NCI tumour cell line growth inhibition, 48 h
Activity calls are given as the source filed them. Cut-off read from the data, not from the text of the source: active = GI50 up to about 1.1 µM and inactive = higher.
Known GI50 of a selection of compounds

# count of solved cases: 2
[
  {
    "Compound": "CN(C)c1ccc(C=c2c3ccccc3n3c2cc(-c2ccc(Cl)cc2)[n+]3C)cc1",
    "GI50": "0.291 µM (active)"
  },
  {
    "Compound": "c1ccc2nc3c(nc2c1)sc1ccccc13",
    "GI50": "14.9 µM (inactive)"
  }
]

Next, consider the following compound.
// Input: CC1(C)CN=C(Nc2ccc(F)cc2)S1 . Output its GI50 only. > 100 µM (inactive)

----------
System: OVCAR-5
Assay: NCI tumour cell line growth inhibition, 48 h
The source made the active and inactive calls. Cut-off read from the data, not from the text of the source: active = GI50 up to about 1.1 µM and inactive = higher.
Property Label: GI50

# count of solved cases: 5
[
  {
    "Compound": "COc1ccccc1N1C(=O)/C(=C/c2ccc(N(CCC#N)CCC#N)cc2C)N=C1c1cc([N+](=O)[O-])ccc1Cl",
    "GI50": "> 100 µM (inactive)"
  },
  {
    "Compound": "O=C1C(Cl)C(c2cc3cc(Br)ccc3nc2Cl)N1c1ccc(F)c(Cl)c1 (stereo not drawn)",
    "GI50": "12 µM (inactive)"
  },
  {
    "Compound": "O/N=C1\\CCc2cc3c(cc21)CCC3",
    "GI50": "> 100 µM (inactive)"
  },
  {
    "Compound": "COc1ccccc1/C=C1\\N=C(C)OC1=O",
    "GI50": "> 100 µM (inactive)"
  },
  {
    "Compound": "CN(C)c1ccc(/C=C(\\NC(=O)c2ccccc2)C(=O)Nc2ccccc2C(=O)NN2C(=O)CSC2c2ccc(N(C)C)cc2)cc1 (stereo not drawn)",
    "GI50": "> 100 µM (inactive)"
  }
]

// Input: FC(F)=C(c1ccc(-c2ccc(Cl)cc2)cc1)C(F)(F)F . Output its GI50 only. 17.5 µM (inactive)

// Input: O=C1CCSC(=S)N1c1ccc(Br)c(Cl)c1 . Output its GI50 only. 43.9 µM (inactive)

// Input: CC(=O)NNc1nc(C)c(C(=O)NNC(=O)C(=O)Nc2c([N+](=O)[O-])ccc(C)c2C)s1 . Output its GI50 only. > 100 µM (inactive)

// Input: Cn1c2ccccc2n2c3ccccc3c3nnc(N)c-3c12 . Output its GI50 only. > 100 µM (inactive)

// Input: CCCCCCCCOCC(O)CO (stereo not drawn) . Output its GI50 only. > 100 µM (inactive)

// Input: CC(C)(C)OC(=O)N1N=CCC1c1ccccc1 (stereo not drawn) . Output its GI50 only. > 100 µM (inactive)

// Input: CC(=O)NC1=C(C)C(=O)c2c(nc3n2CCC3OC(=O)c2ccccc2)C1=N (stereo not drawn) . Output its GI50 only. 2.98 µM (inactive)

// Input: Nc1nc(N)c2c(n1)CCC(S(=O)(=O)c1ccc3ccccc3c1)C2 (stereo not drawn) . Output its GI50 only. 87.7 µM (inactive)

// Input: COc1c2c(cc3c(CCc4ccccc4)cc(=O)oc13)CCC(C)(C)O2 . Output its GI50 only. > 100 µM (inactive)

// Input: Cc1ccc(S(=O)(=O)N(CCN2C(=O)c3ccccc3C2=O)c2cc3c4c(c2)Oc2cc(N(CCN5C(=O)c6ccccc6C5=O)S(=O)(=O)c5ccc(C)cc5)cc5c2C4(C)c2c(cc(N(CCN4C(=O)c6ccccc6C4=O)S(=O)(=O)c4ccc(C)cc4)cc2O5)O3)cc1 . Output its GI50 only. > 100 µM (inactive)
